Kindly supply the reported BUN values for the records listed here.
species: Rattus norvegicus; assay: Open TG-GATES - Regimen: Daily Repeat; type: toxicity, organism-based, Sprague-Dawley; design: regimen Daily Repeat, gender Male, age 6 weeks; conditions: in vivo, po, 1000 mg/kg, […], tissue Plasma, route gavage, dose level High, time 28 day
Express your answer in mg/dL, writing the number without its unit.

**Query** Please list BUN recorded for the molecule `CN/C(=N/CCSCc1nc[nH]c1C)NC#N`
**Result** 20.4

**Query** Please list BUN recorded for the molecule `CCOc1ccc(NC(C)=O)cc1`
**Result** 21.4

**Query** Please list BUN recorded for the molecule `O=C(OC[C@H]1O[C@@H](OC(=O)c2cc(O)c(O)c(OC(=O)c3cc(O)c(O)c(O)c3)c2)[C@H](OC(=O)c2cc(O)c(O)c(OC(=O)c3cc(O)c(O)c(O)c3)c2)[C@@H](OC(=O)c2cc(O)c(O)c(OC(=O)c3cc(O)c(O)c(O)c3)c2)[C@@H]1OC(=O)c1cc(O)c(O)c(OC(=O)c2cc(O)c(O)c(O)c2)c1)c1cc(O)c(O)c(OC(=O)c2cc(O)c(O)c(O)c2)c1`
**Result** 20.4

**Query** Please list BUN recorded for the molecule `COC(=O)C1=C(C)NC(C)=C(C(=O)OC)C1c1ccccc1[N+](=O)[O-]`
**Result** 18.2

**Query** Please list BUN recorded for the molecule `CNC(=C[N+](=O)[O-])NCCSCc1ccc(CN(C)C)o1`
**Result** 17.2

**Query** Please list BUN recorded for the molecule `Cc1nnc2n1-c1ccc(Cl)cc1C(c1ccccc1Cl)=NC2`
**Result** 15.4

====

Kindly supply the reported BUN values for the records listed here.
species: Rattus norvegicus; assay: Open TG-GATES - Regimen: Single; assay type: toxicity, organism-based, Sprague-Dawley; parameters: regimen Single, gender Male, age 6 weeks; details: in vivo, po, 100 mg/kg, 24 h, tissue Plasma, route gavage, dose level Low
Express your answer in mg/dL, writing the number without its unit.

**Query** Please list BUN recorded for the molecule `Cc1nnc2n1-c1ccc(Cl)cc1C(c1ccccc1Cl)=NC2`
**Result** 12

**Query** Please list BUN recorded for the molecule `CN/C(=N/CCSCc1nc[nH]c1C)NC#N`
**Result** 15.8

**Query** Please list BUN recorded for the molecule `COC(=O)C1=C(C)NC(C)=C(C(=O)OC)C1c1ccccc1[N+](=O)[O-]`
**Result** 14.6

**Query** Please list BUN recorded for the molecule `O=C(OC[C@H]1O[C@@H](OC(=O)c2cc(O)c(O)c(OC(=O)c3cc(O)c(O)c(O)c3)c2)[C@H](OC(=O)c2cc(O)c(O)c(OC(=O)c3cc(O)c(O)c(O)c3)c2)[C@@H](OC(=O)c2cc(O)c(O)c(OC(=O)c3cc(O)c(O)c(O)c3)c2)[C@@H]1OC(=O)c1cc(O)c(O)c(OC(=O)c2cc(O)c(O)c(O)c2)c1)c1cc(O)c(O)c(OC(=O)c2cc(O)c(O)c(O)c2)c1`
**Result** 17.8

**Query** Please list BUN recorded for the molecule `CNC(=C[N+](=O)[O-])NCCSCc1ccc(CN(C)C)o1`
**Result** 14.4

====

species on record: Rattus norvegicus; assay: Open TG-GATES - Regimen: Single; type: toxicity, organism-based, Sprague-Dawley; parameters: regimen Single, gender Male, age 6 weeks; conditions: in vivo, po, 100 mg/kg, 3 h, tissue Plasma, route gavage, dose level Low
Kindly supply the reported CRE values for the records listed here.
Express your answer in mg/dL, writing the number without its unit.

**Query** Please list CRE recorded for the molecule Cc1nnc2n1-c1ccc(Cl)cc1C(c1ccccc1Cl)=NC2 [TRIAZOLAM]
**Result** 0.2

**Query** Please list CRE recorded for the molecule O=C(OC[C@H]1O[C@@H](OC(=O)c2cc(O)c(O)c(OC(=O)c3cc(O)c(O)c(O)c3)c2)[C@H](OC(=O)c2cc(O)c(O)c(OC(=O)c3cc(O)c(O)c(O)c3)c2)[C@@H](OC(=O)c2cc(O)c(O)c(OC(=O)c3cc(O)c(O)c(O)c3)c2)[C@@H]1OC(=O)c1cc(O)c(O)c(OC(=O)c2cc(O)c(O)c(O)c2)c1)c1cc(O)c(O)c(OC(=O)c2cc(O)c(O)c(O)c2)c1 [TANNIC ACID]
**Result** 0.5

**Query** Please list CRE recorded for the molecule CN/C(=N/CCSCc1nc[nH]c1C)NC#N [CIMETIDINE]
**Result** 0.4

**Query** Please list CRE recorded for the molecule CNC(=C[N+](=O)[O-])NCCSCc1ccc(CN(C)C)o1 [RANITIDINE]
**Result** 0.4

**Query** Please list CRE recorded for the molecule COC(=O)C1=C(C)NC(C)=C(C(=O)OC)C1c1ccccc1[N+](=O)[O-] [NIFEDIPINE]
**Result** 0.3

====

species: Rattus norvegicus; assay: Open TG-GATES - Regimen: Daily Repeat; type: toxicity, organism-based, Sprague-Dawley; parameters: regimen Daily Repeat, gender Male, age 6 weeks; conditions: in vivo, po, 1000 mg/kg, 72 h, tissue Blood, route gavage, dose level High, time 3 day
Kindly supply the reported Ret values for the records listed here.
Express your answer in %, writing the number without its unit.

**Query** Please list Ret recorded for the compound CNC(=C[N+](=O)[O-])NCCSCc1ccc(CN(C)C)o1 [RANITIDINE]
**Result** 4.8

**Query** Please list Ret recorded for the compound Cc1nnc2n1-c1ccc(Cl)cc1C(c1ccccc1Cl)=NC2 [TRIAZOLAM]
**Result** 6.4

**Query** Please list Ret recorded for the compound CN/C(=N/CCSCc1nc[nH]c1C)NC#N [CIMETIDINE]
**Result** 5.4

**Query** Please list Ret recorded for the compound CCOc1ccc(NC(C)=O)cc1 [PHENACETIN]
**Result** 1.5

**Query** Please list Ret recorded for the compound O=C(OC[C@H]1O[C@@H](OC(=O)c2cc(O)c(O)c(OC(=O)c3cc(O)c(O)c(O)c3)c2)[C@H](OC(=O)c2cc(O)c(O)c(OC(=O)c3cc(O)c(O)c(O)c3)c2)[C@@H](OC(=O)c2cc(O)c(O)c(OC(=O)c3cc(O)c(O)c(O)c3)c2)[C@@H]1OC(=O)c1cc(O)c(O)c(OC(=O)c2cc(O)c(O)c(O)c2)c1)c1cc(O)c(O)c(OC(=O)c2cc(O)c(O)c(O)c2)c1 [TANNIC ACID]
**Result** 7.9

**Query** Please list Ret recorded for the compound COC(=O)C1=C(C)NC(C)=C(C(=O)OC)C1c1ccccc1[N+](=O)[O-] [NIFEDIPINE]
**Result** 7.3

====

species on record: Rattus norvegicus; assay: Open TG-GATES - Regimen: Single; type: toxicity, organism-based, Sprague-Dawley; design: regimen Single, gender Male, age 6 weeks; conditions: in vivo, po, 1000 mg/kg, 24 h, tissue Blood, route gavage, dose level High
experimentalEndpoint: WBC (x10_2/uL)
Express your answer in x10_2/uL, writing the number without its unit.

**Query** Please list WBC recorded for the compound `COC(=O)C1=C(C)NC(C)=C(C(=O)OC)C1c1ccccc1[N+](=O)[O-]`
**Result** 99.5

**Query** Please list WBC recorded for the compound `CN/C(=N/CCSCc1nc[nH]c1C)NC#N`
**Result** 101.7

**Query** Please list WBC recorded for the compound `CNC(=C[N+](=O)[O-])NCCSCc1ccc(CN(C)C)o1`
**Result** 75.4

**Query** Please list WBC recorded for the compound `Cc1nnc2n1-c1ccc(Cl)cc1C(c1ccccc1Cl)=NC2`
**Result** 97.7

**Query** Please list WBC recorded for the compound `O=C(OC[C@H]1O[C@@H](OC(=O)c2cc(O)c(O)c(OC(=O)c3cc(O)c(O)c(O)c3)c2)[C@H](OC(=O)c2cc(O)c(O)c(OC(=O)c3cc(O)c(O)c(O)c3)c2)[C@@H](OC(=O)c2cc(O)c(O)c(OC(=O)c3cc(O)c(O)c(O)c3)c2)[C@@H]1OC(=O)c1cc(O)c(O)c(OC(=O)c2cc(O)c(O)c(O)c2)c1)c1cc(O)c(O)c(OC(=O)c2cc(O)c(O)c(O)c2)c1`
**Result** 91

====

organism: Rattus norvegicus; test: Open TG-GATES - Regimen: Single; type: toxicity, organism-based, Sprague-Dawley; set-up: regimen Single, gender Male, age 6 weeks; conditions: in vivo, po, 300 mg/kg, 24 h, tissue Plasma, route gavage, dose level Middle
experimentalEndpoint: TC (mg/dL)
Express your answer in mg/dL, writing the number without its unit.

**Query** Please list TC recorded for the compound `O=C(OC[C@H]1O[C@@H](OC(=O)c2cc(O)c(O)c(OC(=O)c3cc(O)c(O)c(O)c3)c2)[C@H](OC(=O)c2cc(O)c(O)c(OC(=O)c3cc(O)c(O)c(O)c3)c2)[C@@H](OC(=O)c2cc(O)c(O)c(OC(=O)c3cc(O)c(O)c(O)c3)c2)[C@@H]1OC(=O)c1cc(O)c(O)c(OC(=O)c2cc(O)c(O)c(O)c2)c1)c1cc(O)c(O)c(OC(=O)c2cc(O)c(O)c(O)c2)c1`
**Result** 75.2

**Query** Please list TC recorded for the compound `CNC(=C[N+](=O)[O-])NCCSCc1ccc(CN(C)C)o1`
**Result** 79.2

**Query** Please list TC recorded for the compound `Cc1nnc2n1-c1ccc(Cl)cc1C(c1ccccc1Cl)=NC2`
**Result** 77.6

**Query** Please list TC recorded for the compound `CN/C(=N/CCSCc1nc[nH]c1C)NC#N`
**Result** 77.8

**Query** Please list TC recorded for the compound `COC(=O)C1=C(C)NC(C)=C(C(=O)OC)C1c1ccccc1[N+](=O)[O-]`
**Result** 77.8

FYI, the data here is from ChEMBL document CHEMBL3885861.
